Values were extracted from patent US20130295102A1.

Collected Hemolytic assay IC50 (nM), 10% serum values appear next to each entry.
Molecular target: Human Factor P (human, UniProt P27918 29-469)
Sequence (P27918 29-469 limits assumed): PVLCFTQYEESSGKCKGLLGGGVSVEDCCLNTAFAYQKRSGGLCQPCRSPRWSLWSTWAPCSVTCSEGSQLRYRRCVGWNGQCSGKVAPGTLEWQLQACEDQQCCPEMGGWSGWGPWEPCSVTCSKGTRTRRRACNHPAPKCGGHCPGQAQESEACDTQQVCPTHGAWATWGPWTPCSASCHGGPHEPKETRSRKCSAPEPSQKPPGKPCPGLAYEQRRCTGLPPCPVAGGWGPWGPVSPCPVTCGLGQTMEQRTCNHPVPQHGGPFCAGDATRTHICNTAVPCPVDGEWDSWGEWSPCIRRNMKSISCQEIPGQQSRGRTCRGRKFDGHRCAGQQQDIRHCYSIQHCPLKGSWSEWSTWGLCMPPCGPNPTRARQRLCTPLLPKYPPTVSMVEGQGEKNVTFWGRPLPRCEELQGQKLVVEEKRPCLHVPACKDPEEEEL
Assay: cell-based or functional assay
# value in nM; strip the unit string

[
  {
    "binder": "NVS807 (Fab, V domains shown) VH: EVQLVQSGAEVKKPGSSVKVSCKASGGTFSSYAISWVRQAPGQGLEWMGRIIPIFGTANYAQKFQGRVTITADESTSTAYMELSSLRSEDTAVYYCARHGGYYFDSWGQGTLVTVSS VL: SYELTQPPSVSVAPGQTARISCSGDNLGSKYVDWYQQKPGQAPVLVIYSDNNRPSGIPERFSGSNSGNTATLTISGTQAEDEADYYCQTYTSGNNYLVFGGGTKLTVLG",
    "unit": "nM",
    "Hemolytic assay IC50 (nM), 10% serum": 12.9
  }
]

Below: the item to evaluate.
Query string: So what's the measured Hemolytic assay IC50 (nM), 10% serum for this one? NVS962-S31A (Fab, V domains shown, NVS962 with heavy chain serine 31 replaced with alanine) VH: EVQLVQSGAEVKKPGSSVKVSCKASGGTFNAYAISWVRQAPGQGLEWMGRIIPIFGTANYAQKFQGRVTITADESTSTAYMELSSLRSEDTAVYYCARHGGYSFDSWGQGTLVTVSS VL: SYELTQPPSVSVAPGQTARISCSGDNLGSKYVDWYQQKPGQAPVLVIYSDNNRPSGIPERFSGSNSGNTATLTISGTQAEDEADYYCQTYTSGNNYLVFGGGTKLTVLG
Result string: 12.8
